Tested on: M14
Experiment: NCI tumour cell line growth inhibition, 48 h
The source made the active and inactive calls. Cut-off read from the data, not from the text of the source: active = GI50 up to about 1.1 µM and inactive = higher. Residues, ends and D or L forms follow the SMILES beside them.
Quantity name: GI50

Problem: Fill blank: measured GI50 of the compound C=C(C)C1CC=C(C)C(O)([C@@]2(O)C[C@H](C(=C)C)CC=C2C)C1 (stereo partly drawn) is ____.
Result: 16.4 µM (inactive)

Problem: Which GI50 value belongs to CN(C)c1ccc(/C=C2\C[N+](C)(C)C/C(=C\c3ccc(N(C)C)cc3)C2=O)cc1 ?
Result: 20.3 µM (inactive)

Problem: # query: GI50 of entry Oc1c2cccc1Cc1cccc3c1OCCOCCOCCOCCOc1c(cccc1Cc1cccc(c1O)C3)C2
Result: > 100 µM (inactive)

Problem: So what does the record say about GI50 for COc1ccc(C2N(NC(=O)c3ccncc3)C(=O)CS2(=O)=O)cc1F (stereo not drawn) ?
Result: > 100 µM (inactive)

Problem: Return reported GI50; argument: CCCCSc1n/c(=C\c2ccc(N(C)C)cc2)c2nnnn12
Result: > 100 µM (inactive)

Problem: Which GI50 is reported for this compound? CCC(C)C(NC(=O)C1CCCN1)C(=O)NC(C(=O)NCC(=O)NC(CC(N)=O)C(=O)NC(CC(C)C)C(=O)NC(CC(C)C)C(=O)NC(CCCCN)C(N)=O)C(C)C (stereo not drawn) (H-PIVGNLLK-NH2; configuration not given here)
Result: > 75 µM (inactive)

Problem: Entry O=C(Cn1c(-c2ccccc2)cc2ccccc21)N1CCCC1 : reported GI50 = ?
Result: > 100 µM (inactive)

Problem: Can you share its GI50? I mean this compound: CC(=C(C(=O)O)C(=O)O)c1cc(-c2cccs2)cc(-c2ccc(Cl)cc2)c1O
Result: 17.7 µM (inactive)

Problem: Item under review: O=C1OC(=O)C2C3CCC(O3)C12 (stereo not drawn) . Reported GI50?
Result: > 100 µM (inactive)

Problem: What measured GI50 goes with COc1cc(/C=N/n2c(C)n[nH]c2=O)cc(OC)c1OC ?
Result: > 100 µM (inactive)

Problem: Given the compound N=c1c2c(=S)n(-c3ccccc3)c(=S)n(-c3ccccc3)c2nc(SCCCN2CCCCC2)n1-c1ccccc1 , what is its reported GI50?
Result: 1.69 µM (inactive)

Problem: Request the reported GI50 associated with Oc1cccc2cc(Cl)cnc12
Result: 9.06 µM (inactive)

Problem: For the compound Cc1nc(N/N=C/c2ccccc2Cl)[nH]c(=O)c1CCO , what GI50 is on record?
Result: 87.7 µM (inactive)

Problem: Looking for the measured GI50 of COc1ccc(-c2c(N)n(-c3nc4ccccc4s3)c(=O)c3cc([N+](=O)[O-])ccc23)cc1 , can you help?
Result: 17.8 µM (inactive)

Problem: Give the measured GI50 of COc1cc(CCC(=O)NS(=O)(=O)c2ccccc2)cc(OC)c1OC .
Result: > 100 µM (inactive)

Problem: Item under review: CCOC(=O)C1=c2[nH]c3cccc4cccc(c43)n2C=C(C(C)=O)C1CC(C)=O (stereo not drawn) . Reported GI50?
Result: > 100 µM (inactive)

Problem: Record request: GI50 value, item COc1cc2c[n+](C)c3c4ccccc4ccc3c2cc1OC.COc1cc2cnc3c4ccccc4ccc3c2cc1OC
Result: 20.2 µM (inactive)

Problem: Name the recorded GI50 for Cc1ccc(/C(C#N)=C/c2cccc([N+](=O)[O-])c2)cc1 .
Result: > 100 µM (inactive)
